Listing of entries alongside the reported serum sterol level, percent of control.
# Test system: Rattus norvegicus
# MEASUREMENT PROTOCOL: In vivo Sterol lowering activity at dose as 0.03 % of the diet.
# Format: functional
Your answer is read as %, so omit the unit and give the number.

Here are 2 compounds together with their reported answers.
CCOC(=O)c1ccc(NC(=O)/C=C/c2ccc(Cl)cc2)cc1 = 107
O=C(O)c1ccc(NCCCc2ccc([N+](=O)[O-])cc2)cc1 = 91

Exercise: For `CCOC(=O)c1ccc(NCCCc2ccc(OC)cc2)cc1` , what is its reported serum sterol level, percent of control?
Solution: 90

Exercise: Name the recorded serum sterol level, percent of control for `Cc1ccc(CCCNc2ccc(C(=O)O)cc2)cc1` .
Solution: 98

Exercise: Returns the measured serum sterol level, percent of control for the input compound. Input: `O=C(CCc1ccc(Cl)cc1)Nc1ccc(C(=O)O)cc1`
Solution: 104

Exercise: Record request: serum sterol level, percent of control value, item `CCOC(=O)c1ccc(NCc2ccc(Cl)cc2)cc1`
Solution: 86

Exercise: serum sterol level, percent of control for `O=C(CCCCCc1ccc(Cl)cc1)Nc1ccc(C(=O)O)cc1` ?
Solution: 93

Exercise: Could you share which serum sterol level, percent of control value was measured for CC(C(=O)O)c1ccc(NCCCc2ccc(Cl)cc2)cc1 (stereo unspecified) ?
Solution: 96

###

# TARGET OF ASSAY: Sterol O-acyltransferase 1 (Rattus norvegicus) (UniProt O70536)
# MEASUREMENT PROTOCOL: In vitro inhibitory activity against acyl coenzyme A:cholesterol acyltransferase (ACAT)
# Parameters: concentration or dose not given beside the values
# CONDITIONS USED: concentration not given here
Record label 1 whenever inhibition is at 40% or higher; record label 0 when lower.

Consider the following illustrative entries.
CCCCCCCCCCCCCOc1ccc(CNc2ccc(C(=O)O)cc2)cc1 = label 0
CCCCCCCCCC/C=C/CCCNc1ccc(C(=O)OCC)cc1 = label 0
O=C(O)c1cccc(NCCCc2ccc(Cl)cc2)c1 = label 0

Exercise: Check this compound for inhibition at or above 40%: `O=C(O)c1ccc(NCCCCCCc2cccs2)cc1`
Solution: label 0

Exercise: Say whether `O=C(O)c1ccc(NCCCc2ccccc2F)cc1` shows inhibition of 40% or more.
Solution: label 1

Exercise: Assess whether reported inhibition for `CCOC(=O)c1ccc(NC/C=C/c2ccc(Cl)cc2)cc1` sits at 40% or higher.
Solution: label 0

###

# System: Rattus norvegicus
# MEASUREMENT PROTOCOL: In vivo triglyceride lowering activity, dosed at 0.03 % of the diet
# Format: functional
READOUT NAME: serum triglycerides, percent of control

Example cases with answers are listed next.
CCCCCCCCCCCCCCCCCCNc1ccc(C(=O)[O-])cc1.[Na+] = <76%
CCCCCCCCCCCc1nc(CNc2ccc(C(=O)O)cc2)c[nH]1.Cl = <71%
C=C(CCCCCCCCCC)CCCCCNc1ccc(C(=O)O)cc1 = <64%

Exercise: I'm curious: which serum triglycerides, percent of control was measured for `O=C([O-])c1ccc(NCCCc2ccc(Cl)cc2)cc1.[Na+]` tested on Rattus norvegicus?
Solution: 60%

###

# Test system: Rattus norvegicus
# MEASUREMENT PROTOCOL: In vivo Sterol lowering activity at dose as 0.03 % of the diet.
# Format: functional
Examples of compounds with documented serum sterol level, percent of control follow.
Unit % implied. Number only.

CCOC(=O)c1ccc(NCCCc2ccc(Cl)c(Cl)c2)cc1 = 98
O=C(O)Cc1ccc(NCCCc2ccc(Cl)cc2)cc1 = 85
CCOC(=O)c1ccc(NCCCc2ccccc2[N+](=O)[O-])cc1 = 96

Exercise: GET /values?readout=serum sterol level, percent of control&item= `CCOC(=O)c1ccc(NCCCCCCc2ccco2)cc1`
Solution: 103

Exercise: Query (compound): `O=C(O)c1ccc(NCCCc2cccc(Br)c2)cc1` ; field requested: serum sterol level, percent of control
Solution: 91

Exercise: Recorded serum sterol level, percent of control of `CCOC(=O)c1ccc(NCCCc2cccc(Cl)c2)cc1` , please.
Solution: 88

Exercise: Return reported serum sterol level, percent of control; argument: `CCOC(=O)c1ccc(NCCCCCCc2ccc(Cl)cc2)cc1`
Solution: 95

Exercise: Param item = `CCOC(=O)c1ccc(NCCCc2ccc(C)cc2)cc1` ; retrieve measured serum sterol level, percent of control.
Solution: 103

Exercise: Look up serum sterol level, percent of control: `CCOC(=O)c1ccc(NC(=O)CCc2ccc(Cl)cc2)cc1`
Solution: 107

Exercise: Quick check: serum sterol level, percent of control of `CCOC(=O)c1ccc(NCCCc2ccc(Cl)cc2)cc1` ?
Solution: 89

Exercise: Which serum sterol level, percent of control value is on record for `O=C(O)c1ccc(NCCCc2ccccc2F)cc1` ?
Solution: 85

Exercise: So what's the measured serum sterol level, percent of control for this one? `O=C(O)c1ccc(NCCCc2ccccc2[N+](=O)[O-])cc1`
Solution: 83

Exercise: GET /values?readout=serum sterol level, percent of control&item= CCOC(=O)C(C)c1ccc(NCCCc2ccc(Cl)cc2)cc1 (stereo not drawn)
Solution: 89

Exercise: Which measured serum sterol level, percent of control value corresponds to `CCOC(=O)c1ccc(NCCCc2ccc(N)cc2)cc1` ?
Solution: 97

Exercise: Which serum sterol level, percent of control value belongs to `O=C(O)c1ccc(NCCCCCCc2ccco2)cc1` ?
Solution: 87

Exercise: Which serum sterol level, percent of control value belongs to `O=C(O)c1ccc(NCCc2ccc(Cl)cc2)cc1` ?
Solution: 90

Exercise: Dear colleague, I am looking for the recorded serum sterol level, percent of control of the following compound: `CCOC(=O)c1ccc(NCCCc2ccccc2N)cc1`
Solution: 96

Exercise: Quick check: serum sterol level, percent of control of `CCOC(=O)c1ccc(NCCCCCC(=O)c2ccc(Cl)cc2)cc1` ?
Solution: 92

###

# inhibition values compiled below
# TARGET OF ASSAY: Sterol O-acyltransferase 1 (Rattus norvegicus) (UniProt O70536)
# MEASUREMENT PROTOCOL: In vitro inhibitory activity against acyl coenzyme A:cholesterol acyltransferase (ACAT)
# Design: concentration or dose not given beside the values
# CONDITIONS USED: concentration not given here
Numeric only. Scale: %

O=C(CCCCC(=O)c1ccc(Cl)cc1)Nc1ccc(C(=O)O)cc1 = 40
O=C(O)c1ccc(NCCCc2c(Cl)cccc2Cl)cc1 = 21
O=C(O)c1ccc(NCCCCCC(O)c2ccc(Cl)cc2)cc1 (stereo not given) = 30
CCOC(=O)c1ccc(NCCc2cccs2)cc1 = 49
CCOC(=O)c1ccc(NCCCc2ccccc2OC)cc1 = 64

Exercise: Value lookup for inhibition; key = `CCOC(=O)c1ccc(NCc2cccs2)cc1`
Solution: 44

###

Listing of entries alongside the reported inhibition.
# TARGET OF ASSAY: Sterol O-acyltransferase 1 (Rattus norvegicus) (UniProt O70536)
# Sequence (whole entry): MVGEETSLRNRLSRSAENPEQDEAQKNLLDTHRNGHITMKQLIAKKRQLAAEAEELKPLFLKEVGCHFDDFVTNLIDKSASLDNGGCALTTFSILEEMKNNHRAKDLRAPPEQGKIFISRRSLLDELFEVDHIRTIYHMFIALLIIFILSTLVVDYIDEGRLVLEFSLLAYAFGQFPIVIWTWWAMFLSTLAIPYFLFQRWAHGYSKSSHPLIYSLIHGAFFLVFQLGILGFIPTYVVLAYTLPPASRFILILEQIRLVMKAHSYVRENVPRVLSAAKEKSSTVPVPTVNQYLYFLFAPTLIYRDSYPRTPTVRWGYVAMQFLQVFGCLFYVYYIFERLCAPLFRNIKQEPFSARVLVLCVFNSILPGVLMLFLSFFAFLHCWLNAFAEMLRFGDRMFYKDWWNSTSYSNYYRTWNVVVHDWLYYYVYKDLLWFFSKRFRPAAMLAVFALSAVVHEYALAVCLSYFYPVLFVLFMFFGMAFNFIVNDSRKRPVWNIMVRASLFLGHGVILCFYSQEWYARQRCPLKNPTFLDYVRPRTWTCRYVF
# MEASUREMENT PROTOCOL: In vitro inhibitory activity against acyl coenzyme A:cholesterol acyltransferase (ACAT)
# Set-up: concentration or dose not given beside the values
# CONDITIONS USED: concentration not given here

C=CCCCCCCCC/C=C/CCCNc1ccc(C(=O)O)cc1 = < 44%
CCOC(=O)c1ccc(NCCCCCCCCCCCn2ccnc2)cc1 = < 72%
CCCCCCCOc1ccc(CNc2ccc(C(=O)O)cc2)cc1 = < 24%

Next compound, please.
Exercise: Could you tell me which inhibition is on file for `O=C(O)c1ccc(NCCCCCCCCCCCc2ccccc2)cc1` ?
Solution: < 24%
